- Study target: 5-LO (Cavia porcellus)
- Construct: 5-LO isolated from guinea pig neutrophils; endogenous in cells
- Sequence (A0A286X958 1-674): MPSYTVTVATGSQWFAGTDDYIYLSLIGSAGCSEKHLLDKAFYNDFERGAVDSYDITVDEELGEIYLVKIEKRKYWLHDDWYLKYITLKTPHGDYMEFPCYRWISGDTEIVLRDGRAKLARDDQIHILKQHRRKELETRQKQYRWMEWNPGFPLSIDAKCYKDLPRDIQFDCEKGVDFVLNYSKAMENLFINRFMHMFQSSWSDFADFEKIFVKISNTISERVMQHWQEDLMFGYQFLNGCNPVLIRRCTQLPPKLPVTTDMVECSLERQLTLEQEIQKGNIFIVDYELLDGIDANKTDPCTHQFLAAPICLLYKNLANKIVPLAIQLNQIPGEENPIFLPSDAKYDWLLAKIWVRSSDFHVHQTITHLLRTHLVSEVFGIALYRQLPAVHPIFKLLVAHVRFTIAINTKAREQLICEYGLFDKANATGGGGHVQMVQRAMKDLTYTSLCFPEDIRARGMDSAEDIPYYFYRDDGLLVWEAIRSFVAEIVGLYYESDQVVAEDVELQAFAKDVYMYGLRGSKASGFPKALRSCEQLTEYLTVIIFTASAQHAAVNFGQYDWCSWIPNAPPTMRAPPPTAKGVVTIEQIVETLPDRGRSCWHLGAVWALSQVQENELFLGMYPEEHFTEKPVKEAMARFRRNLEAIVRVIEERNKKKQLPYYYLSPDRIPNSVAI
- Test name: Test a) in vitro spectrophotometric cell free enzyme assay using 5-LO isolated from guinea pig neutrophils
Measurement label: pIC50
Formally, pIC50 is defined as -log10 of the concentration c, with c in mol/L.

Exercise: I'd like to know its pIC50. The compound in question is CCC(OC)(c1cccc(OCc2ccc3ccccc3c2)c1)c1nccs1 (stereo not shown)
Solution: 7.00

###

- Study target: 5-LO (Homo sapiens, UniProt P09917)
- Construct: incubating a test compound with heparinised human blood; endogenous in cells
- Sequence (P09917 whole entry): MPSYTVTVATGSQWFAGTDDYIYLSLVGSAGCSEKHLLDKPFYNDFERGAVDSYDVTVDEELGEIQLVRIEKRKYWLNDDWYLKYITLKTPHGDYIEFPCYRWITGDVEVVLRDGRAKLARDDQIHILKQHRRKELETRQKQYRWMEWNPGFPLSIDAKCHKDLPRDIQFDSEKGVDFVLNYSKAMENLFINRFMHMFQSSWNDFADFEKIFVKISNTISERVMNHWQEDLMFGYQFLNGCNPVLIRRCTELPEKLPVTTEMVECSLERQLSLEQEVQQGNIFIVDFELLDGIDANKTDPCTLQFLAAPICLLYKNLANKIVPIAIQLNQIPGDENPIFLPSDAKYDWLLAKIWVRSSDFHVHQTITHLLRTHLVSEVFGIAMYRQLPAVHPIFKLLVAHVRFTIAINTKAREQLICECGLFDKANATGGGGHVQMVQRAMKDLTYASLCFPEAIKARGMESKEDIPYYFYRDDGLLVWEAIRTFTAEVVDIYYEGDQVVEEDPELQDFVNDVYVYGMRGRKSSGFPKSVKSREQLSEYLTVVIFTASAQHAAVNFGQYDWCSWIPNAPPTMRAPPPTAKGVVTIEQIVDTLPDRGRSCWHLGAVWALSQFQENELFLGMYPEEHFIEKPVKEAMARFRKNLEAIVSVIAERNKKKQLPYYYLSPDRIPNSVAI
- Test name: Test b) heparinised human blood challenged with A23187, LTB4 radioimmunoassay
Measurement label: IC50 (nM)
Numbers only; they are read as nM.

Exercise: Fill in the blank: the reported IC50 of CCC(OC)(c1cccc(OCC#Cc2ccc(F)cc2)c1)c1nccs1 (stereo not shown) is ____.
Solution: 40

###

- Study target: cyclooxygenase (Homo sapiens)
- Construct: incubating a test compound with heparinised human blood; endogenous in cells
- Sequence (P23219 24-599): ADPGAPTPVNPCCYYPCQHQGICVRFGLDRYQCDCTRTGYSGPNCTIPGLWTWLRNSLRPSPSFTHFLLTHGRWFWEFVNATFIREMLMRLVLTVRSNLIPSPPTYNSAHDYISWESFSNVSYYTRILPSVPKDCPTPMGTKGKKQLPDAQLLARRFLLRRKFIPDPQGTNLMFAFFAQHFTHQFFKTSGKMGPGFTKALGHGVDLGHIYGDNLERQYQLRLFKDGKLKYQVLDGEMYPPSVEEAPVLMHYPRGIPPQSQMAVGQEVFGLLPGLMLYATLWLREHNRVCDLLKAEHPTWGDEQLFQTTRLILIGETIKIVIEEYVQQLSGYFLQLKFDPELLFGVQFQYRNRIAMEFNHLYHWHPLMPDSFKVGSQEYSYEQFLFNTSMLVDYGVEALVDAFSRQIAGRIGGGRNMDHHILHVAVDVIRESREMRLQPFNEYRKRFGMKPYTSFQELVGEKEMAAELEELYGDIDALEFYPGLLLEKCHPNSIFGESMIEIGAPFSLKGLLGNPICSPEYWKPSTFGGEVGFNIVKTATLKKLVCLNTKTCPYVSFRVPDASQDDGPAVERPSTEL
- Test name: Test b) heparinised human blood challenged with A23187, TxB2 radioimmunoassay
Measurement label: IC50

Exercise: For the compound CCC(OC)(c1cccc(OCc2ccc3ccccc3c2)c1)c1nccs1 (stereo not shown) , what IC50 is on record?
Solution: > 100 µM
